System: JEG-3 cells
PARTICULARS: FD4 content in basolateral side after 24 h incubation with compound, then 2 h FD4; untreated BPB 1.23%
Peptide text beside a SMILES is read from it. * marks the point of attachment. X1 = C=CC1=C(C)c2cc3[nH]c(cc4nc(cc5[nH]c(cc1n2)c(C)c5CCC(=O)*)C(CCC(=O)O)=C4C)c(C)c3C=C; X3 = C=CC1=C(C)c2cc3[nH]c(cc4nc(cc5[nH]c(cc1n2)c(C)c5CCC(=O)O)C(CCC(=O)*)=C4C)c(C)c3C=C; X2 = CCC1=C(C)c2cc3[nH]c(cc4nc(cc5[nH]c(cc1n2)c(C)c5CCC(=O)O)C(CCC(=O)*)=C4C)c(C)c3CC; X4 = CCC1=C(C)c2cc3[nH]c(cc4nc(cc5[nH]c(cc1n2)c(C)c5CCC(=O)*)C(CCC(=O)O)=C4C)c(C)c3CC
RESULT_TYPE: BPB FD4 (%)
Give a bare numeral; the unit % is implied.

Answered cases to consult:
1. C=CC1=C(C)c2cc3[nH]c(cc4nc(cc5[nH]c(cc1n2)c(C)c5CCC(=O)NCCCC[C@H](NC(=O)[C@H](CC(C)C)NC(=O)[C@H](CO)NC(=O)[C@H](Cc1ccccc1)NC(=O)[C@H](CCCNC(=N)N)NC(=O)[C@H](CCCCN)NC(=O)[C@@H](NC(=O)[C@H](CC(C)C)NC(=O)[C@H](CCC(N)=O)NC(=O)[C@H](CCC(N)=O)NC(=O)[C@@H](N)C(C)C)[C@@H](C)O)C(N)=O)C(CCC(=O)O)=C4C)c(C)c3C=C [Compound P2-PP] (H-VQQLTKRFSLK(X1)-NH2)	0.90
2. CCC1=C(C)c2cc3[nH]c(cc4nc(cc5[nH]c(cc1n2)c(C)c5CCC(=O)O)C(CCC(=O)NCCCC[C@H](NC(=O)[C@H](Cc1ccc(O)cc1)NC(=O)[C@H](CCC(=O)O)NC(=O)[C@H](CCC(=O)O)NC(=O)[C@H](CCC(N)=O)NC(=O)[C@@H](NC(=O)CNC(=O)[C@@H](N)CO)[C@@H](C)O)C(N)=O)=C4C)c(C)c3CC [Compound P4-MP] (H-SGTQEEYK(X2)-NH2)	1.1
3. C=CC1=C(C)c2cc3[nH]c(cc4nc(cc5[nH]c(cc1n2)c(C)c5CCC(=O)N[C@H](C(=O)N[C@@H](CCC(N)=O)C(=O)N[C@@H](CCC(N)=O)C(=O)N[C@@H](CC(C)C)C(=O)N[C@H](C(=O)N[C@@H](CCCCN)C(=O)N[C@@H](CCCNC(=N)N)C(=O)N[C@@H](Cc1ccccc1)C(=O)N[C@@H](CO)C(=O)N[C@@H](CC(C)C)C(N)=O)[C@@H](C)O)C(C)C)C(CCC(=O)O)=C4C)c(C)c3C=C [(I)] (X1-VQQLTKRFSL-NH2)	0.83
4. CCC1=C(C)c2cc3[nH]c(cc4nc(cc5[nH]c(cc1n2)c(C)c5CCC(=O)N[C@H](C(=O)N[C@@H](CCC(N)=O)C(=O)N[C@@H](CCC(N)=O)C(=O)N[C@@H](CC(C)C)C(=O)N[C@H](C(=O)N[C@@H](CCCCN)C(=O)N[C@@H](CCCNC(=N)N)C(=O)N[C@@H](Cc1ccccc1)C(=O)N[C@@H](CO)C(=O)N[C@@H](CC(C)C)C(N)=O)[C@@H](C)O)C(C)C)C(CCC(=O)O)=C4C)c(C)c3CC [MP-P1] (X4-VQQLTKRFSL-NH2)	1.16

Proceed to the following item.
Task: Provide value of BPB FD4 (%) for this record tested with JEG-3 cells: C=CC1=C(C)c2cc3[nH]c(cc4nc(cc5[nH]c(cc1n2)c(C)c5CCC(=O)O)C(CCC(=O)NCCCC[C@H](NC(=O)[C@H](Cc1ccc(O)cc1)NC(=O)[C@H](CCC(=O)O)NC(=O)[C@H](CCC(=O)O)NC(=O)[C@H](CCC(N)=O)NC(=O)[C@@H](NC(=O)CNC(=O)[C@@H](N)CO)[C@@H](C)O)C(N)=O)=C4C)c(C)c3C=C [Compound P4-PP] (H-SGTQEEYK(X3)-NH2)
Output: 1.2
